- System: K562
- assay remarks: NCI tumour cell line growth inhibition, 48 h
Calls of active or inactive are those of the source. Cut-off read from the data, not from the text of the source: active = GI50 up to about 1.1 µM and inactive = higher.
One label from this list, please: 1.0 for active, 0.0 for inactive

Dear all, I need the recorded test outcome for `C1=CC=C2NCCCCCCC/N=C3/C=CC=CC=C3NCCCCCCC/N=C\2C=C1` , thank you.
0.0

Would you kindly repeat that for `COC(=O)c1oc([N+](=O)[O-])c(Cl)c1Cl` ?
0.0

Proceed to `O=C1c2sccc2C(=O)c2c(CO)csc21`
0.0

Would you kindly repeat that for `COC(=O)C1=C(C(=O)OC)C(C(=O)OC)C(C(=O)OC)=C1C(=O)OC` ?
0.0

Next molecule up: `CN(C)/C=N\c1cccc2c1NSN2`
0.0

* * *

- Tested on: SK-MEL-28
- assay remarks: NCI tumour cell line growth inhibition, 48 h
Calls of active or inactive are those of the source. Rule as the data show it: active = GI50 up to about 1.1 µM and inactive = higher.
Answer with one of the outcomes active, inactive

Examples with answers:
• COc1ccc2[nH]c3c(c2c1)CCN(C)CC3 = inactive
• O=C1CC(c2ccccc2)C2(C(=O)NC(=S)NC2=O)C(c2ccccc2)C1 (centres undefined) = inactive
• O=C(Nc1nnc(-c2c(Cl)c(Cl)c(Cl)c(Cl)c2-c2nc3cc(C(=O)c4ccccc4)ccc3[nH]2)o1)c1ccc(Cl)cc1 = inactive

Could you check what this test reported for CC(=O)c1cccc(NC(=O)C(=O)C(c2cnc3ccc([N+](=O)[O-])cc3n2)[N+](=O)[O-])c1 (centres undefined) ?
inactive

And what about the compound O=C1C(Cl)C(c2cccc(O)c2)N1n1cnc2ccccc2c1=O (centres undefined) ?
inactive

Try the compound Nc1nc2c(ncn2C2C=CC(COS(N)(=O)=O)C2)c(=O)[nH]1 (centres undefined)
inactive

Again, but for `N#C/C(=C/n1c(=S)[nH]c2ccccc21)C(N)=O`
inactive

Now the same for `CCCCNC(=S)Nn1c(-c2ccccc2)nc2ccccc2c1=O`
inactive

Follow-up item: `Clc1ccc2nc(-c3ccccc3)nc(Cl)c2c1`
inactive

Request: `CCOCc1cc(=O)c2c(OC)cc3c(c2o1)CCC(C)(C)O3`
inactive

Thanks! And CN1CCC(c2c(O)cc(O)c3c(=O)cc(-c4ccccc4Cl)oc23)C(O)C1 (centres undefined) ?
active

Same again, this time with `CC(=O)NC1=C(NCCCl)C(=O)c2ccccc2C1=O`
inactive

Input COc1ccc2c(c1)CCN1CCc3ccccc3CC21 (centres undefined)
inactive

Let us now turn to CC(=O)C(=O)NC1/C=C(C)\C=C/C(O)C/C=C(C)\C=C/C(O)CC2OC(=O)C1(C)C(=O)C2C (centres undefined)
inactive

Same question for CC(C)(Cl)C(Br)CCC(Br)(CCl)C(Cl)CBr (centres undefined) please.
inactive

And what about the compound `COc1cc2ccccc2oc1=O` ?
inactive

// same read-out, input: `O=S(=O)(CCCCl)SCCCCl`
inactive

Would you kindly repeat that for OC1(c2ccccc2)CC2CCC(C1)N2CCCC(O)(c1ccccc1)c1ccccc1 (centres undefined) ?
inactive

Another: CC(C)(C)c1cc(C2NC(=O)NC2=O)cc(C(C)(C)C)c1O (centres undefined)
inactive

* * *

- Test system: K562
- assay remarks: NCI tumour cell line growth inhibition, 48 h
The source made the active and inactive calls. Cut-off read from the data, not from the text of the source: active = GI50 up to about 1.1 µM and inactive = higher. Peptide text beside a SMILES is read from it. * marks the point of attachment. OSu = O=C1CCC(=O)N1O*
Reply using exactly one outcome from active, inactive

// known answers, use as guide
• NCCCCC(NC(=O)C(N)Cc1ccc(O)cc1)C(=O)NC(CCCCN)C(=O)NC(CCCCN)C(=O)ON1C(=O)CCC1=O (configuration not stated) (H-YKKK-OSu; configuration not given here) = inactive
• Cc1nn(-c2ccccc2)c2c1C(c1ccc(Cl)cc1)NC(=S)N2 (configuration not stated) = inactive
• COCn1cnc2c(=O)nc(SC)n(-c3ccccc3)c21 = inactive
• COc1ccc2[nH]c3c(c2c1)CCN(C)CC3 = inactive
• Cc1nc2c(nc1C)C(=O)c1cc(O)ccc1C2=O = inactive

Recorded call for `S=C(c1c[nH]c2ccccc12)N1CCN(Cc2ccccc2)CC1` ?
inactive

Then this molecule: `COC(C/C(=C/CO[Si](C(C)C)(C(C)C)C(C)C)C(=O)N(C(=O)OC(C)(C)C)c1ccccc1I)OC`
inactive

Same lookup for COC1=CC(=O)C2C(C1=O)C(c1ccc(OC)c(OC)c1)[C@H]2C (some centres not stated) , please.
inactive

* * *

- Tested on: DU-145
- assay remarks: NCI tumour cell line growth inhibition, 48 h
Active and inactive are the calls of the source. Rule as the data show it: active = GI50 up to about 1.1 µM and inactive = higher.
Overview of recorded GI50 for various compounds

Please review the following examples before continuing.
• CSc1c(C(=O)Nc2ccc(Cl)cc2)c(N)nn1-c1ccccc1 = > 100 µM (inactive)
• CCCCCc1c2nc(c(CCCCC)c3ccc([nH]3)c(CCCCC)c3nc(c(CCCCC)c4ccc1[nH]4)C=C3)C=C2 = > 100 µM (inactive)
• Nn1c(-c2ccccc2)n[nH]c1=O = > 100 µM (inactive)
• O=C(Nc1nnc(-c2ccccc2)o1)C(SC(=S)N1CCCCC1)c1ccccc1 (centres undefined) = 17.2 µM (inactive)
• O=[N+]([O-])C1(C2([N+](=O)[O-])CCCC2)CCCC1 = > 100 µM (inactive)

Quick check: GI50 on DU-145, item `SCc1ccc(-c2ccc(CS)cc2)cc1` ?
> 10 µM (inactive)

Let us now turn to `[N-]=[N+]=Nc1c([N+](=O)[O-])c(=O)n2c3c(cccc13)CCC2`
16.9 µM (inactive)

Same question for `Oc1ccc2ccccc2c1OCc1nnc(CCCCCCCCc2nnc(COc3c(O)ccc4ccccc34)n2Nc2ccccc2)n1Nc1ccccc1` please.
19.7 µM (inactive)

Field entry: `COc1ccc(-c2nc(SCC(=O)NNC(=S)Nc3ccccc3)[nH]c2-c2ccc(OC)cc2)cc1`
28.7 µM (inactive)

Same question for `O=c1c2cc(I)ccc2nc(SCc2n[nH]c(=S)o2)n1Cc1ccccc1` please.
16.3 µM (inactive)

One more compound: `CCOP(=O)(OCC)/C(C#N)=C/c1c(C)[nH]c2ccccc12`
> 100 µM (inactive)

* * *

- System: MOLT-4
- assay remarks: NCI tumour cell line growth inhibition, 48 h
Calls of active or inactive are those of the source. No stated cut-off is given here; in the data, active = GI50 up to about 1.1 µM and inactive = higher.
List of GI50 values.

Please review the entries below; each comes with its answer.
• COc1c(O)c2c(c3cc(C(=O)N4CCc5c4c(O)c(OC)c4[nH]c(C(=O)N6CC7CC78C6=CC(=O)c6[nH]cc(C)c68)cc54)[nH]c13)CCN2C(N)=O (stereo not drawn) = 0.0164 µM (active)
• CSc1nc(NC2OC(CO)C(O)C(O)C2O)c(N)c(=O)n1C (stereo not drawn) = > 100 µM (inactive)
• CCOC(=O)CCCn1cc(C(=O)OC)nn1 = > 100 µM (inactive)
• Cc1cn(C2CC(O)C(COC(N)=O)O2)c(=O)[nH]c1=O (stereo not drawn) = > 100 µM (inactive)
• O=c1[nH]c(=O)n(C2CC(O)C(CO)O2)c2nc3ccc4ccccc4c3nc12 (stereo not drawn) = 24.5 µM (inactive)
• COc1cc([C@@H]2c3cc4c(cc3C[C@H]3COC(=O)[C@@H]32)OCO4)cc2c1OCO2 = < 0.01 µM (active)

State the recorded GI50 for this entry: CC1(C)OCC(C2OC(C)(C)OC2[C@H]2O[C@@]3(O)[C@H]4[C@H](C=CC[C@@H]42)[C@@H](OCc2ccccc2)[C@H](OCc2ccccc2)[C@H]3OCc2ccccc2)O1 (stereo partly drawn)
12.5 µM (inactive)

For `Nc1nc(OCc2ccccc2)c2nc[nH]c2n1` then?
67.6 µM (inactive)

* * *

- Test system: COLO 205
- assay remarks: NCI tumour cell line growth inhibition, 48 h
Calls of active or inactive are those of the source. Cut-off read from the data, not from the text of the source: active = GI50 up to about 1.1 µM and inactive = higher.
measurement label: GI50

• COc1cccc2c1CCc1ccccc1CC2=O = > 100 µM (inactive)

Report GI50 for `Cc1c(C#N)c(=O)[nH]c(=O)n1CCN1CCN(C(=O)NCCCCCCNC(=O)N2CCN(CCn3c(C)c(C#N)c(=O)[nH]c3=O)CC2)CC1` please.
> 100 µM (inactive)

Now the compound `CSc1c(C(=O)Nc2ccc(Cl)cc2)c(N)nn1-c1ccccc1`
> 100 µM (inactive)

// same read-out, input: `N#CCCN(CCC#N)c1ccc(/C=C2\N=C(c3cc([N+](=O)[O-])ccc3Cl)N(S(=O)(=O)c3ccccc3)C2=O)cc1`
> 100 µM (inactive)

Check `Cc1cc2c(cc1Cl)SC(NNC1=NCCN1)=NS2(=O)=O` too.
> 10 µM (inactive)

What would you report for O=c1[nH]c(=O)n(C2CC(O)C(CO)O2)c2nc3ccc4ccccc4c3nc12 (centres undefined) ?
64.9 µM (inactive)

Check CC(=O)C(=O)NC1/C=C(C)\C=C/C(O)C/C=C(C)\C=C/C(O)CC2OC(=O)C1(C)C(=O)C2C (centres undefined) too.
> 62.2 µM (inactive)

Try the compound N#CC(NCCc1ccccc1)c1ccc(C(C#N)NCCc2ccccc2)cc1 (centres undefined)
48 µM (inactive)

// repeat for CC(OC(C)(C)C)[C@H](NC(=O)OCc1ccccc1)C(=O)NC(OCc1ccccc1)[C@H]1COC(C)(C)O1 (some centres undefined) and report
> 10 µM (inactive)
